# Assay Info: self-splicing fitness, log relative to wild type (ln ratio); higher = more splicing; Tetrahymena group I intron in knt gene, E. coli kanamycin selection, DiMSum; sequences stand for … in CUCUCU…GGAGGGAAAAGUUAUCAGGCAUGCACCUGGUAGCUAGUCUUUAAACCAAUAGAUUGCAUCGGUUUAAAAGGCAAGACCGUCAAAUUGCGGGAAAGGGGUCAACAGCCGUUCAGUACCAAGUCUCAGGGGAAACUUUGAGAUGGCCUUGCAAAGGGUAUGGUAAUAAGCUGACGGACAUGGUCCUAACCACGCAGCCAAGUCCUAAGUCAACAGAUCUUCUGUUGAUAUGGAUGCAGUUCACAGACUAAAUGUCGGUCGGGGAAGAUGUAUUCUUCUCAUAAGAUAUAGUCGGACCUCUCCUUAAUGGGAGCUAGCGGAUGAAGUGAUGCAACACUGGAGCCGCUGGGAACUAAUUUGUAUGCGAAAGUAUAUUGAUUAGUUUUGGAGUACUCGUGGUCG;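 also: selection with 25 µg/mL kanamycin versus none on LB agar overnight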
# Run Conditions: 30 °C

{"Input Sequence": "CGCCAGCAAUAUUACGCAGG", "self-splicing fitness (ln)": -2.06}
{"Input Sequence": "AAUCAGCAAUAUUACGCUAU", "self-splicing fitness (ln)": -0.347}
{"Input Sequence": "GGUCAGCAAUAUUACGAGCG", "self-splicing fitness (ln)": 0.269}
{"Input Sequence": "UGGUAGCAAUAUUACGUCCA", "self-splicing fitness (ln)": -0.714}
{"Input Sequence": "GCGGAGCAAUAUUACGAGAC", "self-splicing fitness (ln)": -2.85}
{"Input Sequence": "GUUUAGCAAUAUUACGCGCC", "self-splicing fitness (ln)": -3.31}
{"Input Sequence": "ACUGAGCAAUAUUACGCAGU", "self-splicing fitness (ln)": -2.36}
{"Input Sequence": "UGUCAGCAAUAUUACGCCAG", "self-splicing fitness (ln)": -1.31}
{"Input Sequence": "GAACAGCAAUAUUACGCAAG", "self-splicing fitness (ln)": -3.31}
{"Input Sequence": "AUAUAGCAAUAUUACGAUGU", "self-splicing fitness (ln)": 0.361}
{"Input Sequence": "GCUGAGCAAUAUUACGCAAA", "self-splicing fitness (ln)": -4.1}
{"Input Sequence": "AACGAGCAAUAUUACGACUG", "self-splicing fitness (ln)": -2.12}
{"Input Sequence": "AGGAAGCAAUAUUACGUUGC", "self-splicing fitness (ln)": -3.23}
{"Input Sequence": "CCGUAGCAAUAUUACGGGUG", "self-splicing fitness (ln)": -3.59}
{"Input Sequence": "AGUGAGCAAUAUUACGCGUA", "self-splicing fitness (ln)": -1.97}
{"Input Sequence": "AAUGAGCAAUAUUACGAAGC", "self-splicing fitness (ln)": -3.08}
{"Input Sequence": "UUUGAGCAAUAUUACGGUUA", "self-splicing fitness (ln)": -2}
{"Input Sequence": "UUGGAGCAAUAUUACGUUAU", "self-splicing fitness (ln)": -2.79}
{"Input Sequence": "ACGCAGCAAUAUUACGAGGG", "self-splicing fitness (ln)": -3.71}
{"Input Sequence": "GCGCAGCAAUAUUACGGCGU", "self-splicing fitness (ln)": -3.18}
{"Input Sequence": "GCUCAGCAAUAUUACGGACG", "self-splicing fitness (ln)": -1.11}
{"Input Sequence": "CCACAGCAAUAUUACGCAGG", "self-splicing fitness (ln)": -3.97}
{"Input Sequence": "GCCUAGCAAUAUUACGAACA", "self-splicing fitness (ln)": -2.17}
{"Input Sequence": "CACUAGCAAUAUUACGCCCG", "self-splicing fitness (ln)": 0.71}
{"Input Sequence": "UAACAGCAAUAUUACGAUCU", "self-splicing fitness (ln)": -1.04}
{"Input Sequence": "AGUCAGCAAUAUUACGCAUG", "self-splicing fitness (ln)": -2.04}
{"Input Sequence": "GUUCAGCAAUAUUACGUGUG", "self-splicing fitness (ln)": -0.881}
{"Input Sequence": "UCUCAGCAAUAUUACGGAGA", "self-splicing fitness (ln)": -3.23}
{"Input Sequence": "GUAUAGCAAUAUUACGGGAC", "self-splicing fitness (ln)": -2.88}
{"Input Sequence": "AGGUAGCAAUAUUACGACGG", "self-splicing fitness (ln)": -2.04}
{"Input Sequence": "AAGCAGCAAUAUUACGUACU", "self-splicing fitness (ln)": 0.254}
{"Input Sequence": "AAAUAGCAAUAUUACGCUAA", "self-splicing fitness (ln)": -2.19}
{"Input Sequence": "CCGGAGCAAUAUUACGUAAG", "self-splicing fitness (ln)": -0.00724}
{"Input Sequence": "GGUCAGCAAUAUUACGUCCU", "self-splicing fitness (ln)": -2.63}
{"Input Sequence": "GGACAGCAAUAUUACGGUCA", "self-splicing fitness (ln)": -0.242}
{"Input Sequence": "AAGGAGCAAUAUUACGCAAU", "self-splicing fitness (ln)": -2.67}
{"Input Sequence": "GAUAAGCAAUAUUACGCCCA", "self-splicing fitness (ln)": -0.168}
{"Input Sequence": "GAUUAGCAAUAUUACGUGCC", "self-splicing fitness (ln)": 0.747}
{"Input Sequence": "UGACAGCAAUAUUACGAUUU", "self-splicing fitness (ln)": -0.733}
{"Input Sequence": "AGCGAGCAAUAUUACGCAUG", "self-splicing fitness (ln)": -3.33}
{"Input Sequence": "CUAAAGCAAUAUUACGCAUG", "self-splicing fitness (ln)": -0.592}
{"Input Sequence": "UUACAGCAAUAUUACGUAUA", "self-splicing fitness (ln)": -1.59}
{"Input Sequence": "GCGUAGCAAUAUUACGGUGG", "self-splicing fitness (ln)": -4.1}
{"Input Sequence": "CGCCAGCAAUAUUACGAACA", "self-splicing fitness (ln)": -3.55}
{"Input Sequence": "UGGAAGCAAUAUUACGGUGC", "self-splicing fitness (ln)": -2.93}
{"Input Sequence": "CCGUAGCAAUAUUACGCCAA", "self-splicing fitness (ln)": -3.21}
{"Input Sequence": "CGACAGCAAUAUUACGUCAC", "self-splicing fitness (ln)": -3.14}
{"Input Sequence": "AAUCAGCAAUAUUACGACAU", "self-splicing fitness (ln)": 0.114}
{"Input Sequence": "AACCAGCAAUAUUACGAGGG", "self-splicing fitness (ln)": -3.27}
{"Input Sequence": "GAUUAGCAAUAUUACGAUGU", "self-splicing fitness (ln)": -0.783}
{"Input Sequence": "CCCGAGCAAUAUUACGUUCU", "self-splicing fitness (ln)": -3.61}
{"Input Sequence": "CAGCAGCAAUAUUACGCAAC", "self-splicing fitness (ln)": -3.45}
{"Input Sequence": "CAACAGCAAUAUUACGCAAC", "self-splicing fitness (ln)": -3.4}
{"Input Sequence": "UACAAGCAAUAUUACGGAUU", "self-splicing fitness (ln)": -3.61}
{"Input Sequence": "UUGAAGCAAUAUUACGCGGG", "self-splicing fitness (ln)": -1.95}
{"Input Sequence": "ACUAAGCAAUAUUACGCAAG", "self-splicing fitness (ln)": -1.79}
{"Input Sequence": "UCCCAGCAAUAUUACGCAAU", "self-splicing fitness (ln)": -2.69}
{"Input Sequence": "GGUAAGCAAUAUUACGACAC", "self-splicing fitness (ln)": -0.00191}
{"Input Sequence": "AACGAGCAAUAUUACGGUAG", "self-splicing fitness (ln)": -3.73}
{"Input Sequence": "AGUCAGCAAUAUUACGACGU", "self-splicing fitness (ln)": 0.702}
{"Input Sequence": "GAGCAGCAAUAUUACGGUAU", "self-splicing fitness (ln)": -2.9}
{"Input Sequence": "ACACAGCAAUAUUACGCGGG", "self-splicing fitness (ln)": -2.43}
{"Input Sequence": "CCCUAGCAAUAUUACGUUCG", "self-splicing fitness (ln)": -3.63}
{"Input Sequence": "AUUAAGCAAUAUUACGUUAG", "self-splicing fitness (ln)": -2.76}
{"Input Sequence": "GGAGAGCAAUAUUACGCGAU", "self-splicing fitness (ln)": -2.76}
{"Input Sequence": "GGCCAGCAAUAUUACGAGCA", "self-splicing fitness (ln)": -0.969}
{"Input Sequence": "UGGAAGCAAUAUUACGGUAU", "self-splicing fitness (ln)": -3.09}

All values here come from the supplement of paper PMC7877785.
